# MEASURED TARGET: T1, human MSLN-R2-his protein (human, UniProt Q13421 391-486)
# T1 construct: Self-made in HEK293E cells; also called human MSLN-R2 protein; hMSLN-R2-his; not shown: His tag
# T1 sequence (Q13421 other isoform, or with tags, fused parts or gaps): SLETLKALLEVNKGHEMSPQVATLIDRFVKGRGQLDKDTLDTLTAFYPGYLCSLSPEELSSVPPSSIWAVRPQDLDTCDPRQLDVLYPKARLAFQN
# PROCEDURE SUMMARY: ELISA on coated antigen, antibody 0.001 nM
QUANTITY KIND: OD450
Returns: string containing the numeric result and its unit.

Query: Dear colleague, I am looking for the recorded OD450 of the following binder: S009-F2.38.12 (antibody, human IgG1, kappa, V domains shown, Human-murine chimeric antibody: murine VH/VL on human IgG1 heavy and kappa light constant regions) VH: QVQLQQPGTELVKPGASVKLSCKASGYTFTSYWMHWVKQRPGQGLEWIGNINPSNGGTNYNEKIKNKATLTVDKSSSTAYMQLSSLTSEDSAVYYCARWNYYGNYPFDYWGQGTTLTVSS VL: DIVMTQSQKFMSTTVGDRVSITCKASQNVGTAVAWYQQKPGQSPKLLIYSASNRYTGVPDRFTGSGSGTDFTLTISNMQSEDLADYFCQQYSSYPLTFGAGTKLELKR
Reply: 0.05 OD450

Query: Dear colleague, I am looking for the recorded OD450 of the following binder: S009-F2.21.4 (antibody, human IgG1, kappa, V domains shown, Human-murine chimeric antibody: murine VH/VL on human IgG1 heavy and kappa light constant regions) VH: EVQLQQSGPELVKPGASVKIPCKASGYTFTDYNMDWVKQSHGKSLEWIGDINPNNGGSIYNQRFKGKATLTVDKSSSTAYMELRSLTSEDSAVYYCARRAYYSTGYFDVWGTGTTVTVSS VL: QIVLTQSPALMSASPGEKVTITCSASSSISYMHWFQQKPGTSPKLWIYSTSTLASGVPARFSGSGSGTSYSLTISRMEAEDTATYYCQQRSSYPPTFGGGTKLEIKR
Reply: 0.05 OD450
